target: B-RAF V600E (Homo sapiens, UniProt P15056, V600E); construct: expressed in transfected cells; host or cells: T-Rex 293 cells (Invitrogen #R71007); assay: Target protein degradation, assay C: T-Rex 293 cells, HA-BRAF_V600E, 384 well format; type: cell-based; conditions: T-REx-293, Assay C, T-Rex 293 HA-BRAF_V600E cells, 24 hours, Examples 83-269
Sequence (P15056 whole entry V600E): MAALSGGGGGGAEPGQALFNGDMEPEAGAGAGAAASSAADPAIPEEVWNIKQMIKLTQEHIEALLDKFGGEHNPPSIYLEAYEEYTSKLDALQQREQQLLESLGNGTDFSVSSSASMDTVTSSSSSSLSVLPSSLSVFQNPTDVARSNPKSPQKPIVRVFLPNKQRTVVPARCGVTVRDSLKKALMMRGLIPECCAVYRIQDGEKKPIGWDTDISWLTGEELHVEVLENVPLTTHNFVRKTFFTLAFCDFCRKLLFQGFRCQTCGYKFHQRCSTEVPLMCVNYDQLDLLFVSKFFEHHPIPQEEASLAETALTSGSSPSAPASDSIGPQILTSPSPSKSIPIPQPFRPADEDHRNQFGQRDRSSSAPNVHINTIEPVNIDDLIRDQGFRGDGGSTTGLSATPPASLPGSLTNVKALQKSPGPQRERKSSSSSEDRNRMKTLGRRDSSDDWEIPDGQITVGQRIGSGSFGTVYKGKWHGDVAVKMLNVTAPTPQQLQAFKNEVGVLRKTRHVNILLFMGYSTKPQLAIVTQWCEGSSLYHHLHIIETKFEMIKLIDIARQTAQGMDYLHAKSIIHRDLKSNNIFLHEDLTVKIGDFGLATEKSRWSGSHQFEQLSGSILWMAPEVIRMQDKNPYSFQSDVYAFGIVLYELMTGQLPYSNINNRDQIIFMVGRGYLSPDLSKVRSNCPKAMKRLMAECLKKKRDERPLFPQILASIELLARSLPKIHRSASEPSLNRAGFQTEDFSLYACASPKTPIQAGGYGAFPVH
endpoint: Dmax

In the examples that follow, each entry is paired with its recorded Dmax.
| compound | system-tested | endpoint | result |
| --- | --- | --- | --- |
| COc1cc(-n2cnc3ccc(Oc4c(F)ccc(NS(=O)(=O)N5CC[C@@H](F)C5)c4C#N)cc3c2=O)ccc1N1CCN(CC2CCN(c3ccc4c(c3)CN(C3CCC(=O)NC3=O)C4=O)CC2)CC1 (some centres unmarked) [Example 88] | B-RAF V600E (Homo sapiens, UniProt P15056, V600E) | Dmax | ≤ 35% |
| N#Cc1c(NS(=O)(=O)N2CC[C@@H](F)C2)ccc(F)c1Oc1ccc2ncn(-c3ccc(N4CCC(CN5CC6(CCN(c7ccc8c(c7)CN([C@H]7CCC(=O)NC7=O)C8=O)CC6)C5)CC4)cc3)c(=O)c2c1 [Example 238] | B-RAF V600E (Homo sapiens, UniProt P15056, V600E) | Dmax | ≥ 70% |
| N#Cc1c(NS(=O)(=O)N2CC[C@@H](F)C2)ccc(F)c1Oc1ccc2ncn(-c3ccc(N4CCN(c5ccc6c(c5)C(=O)N(C5CCC(=O)NC5=O)C6=O)CC4)nc3)c(=O)c2c1 (some centres unmarked) [Example 161] | B-RAF V600E (Homo sapiens, UniProt P15056, V600E) | Dmax | 35 to 70% |

Provide only the value of recorded Dmax for N#Cc1c(NS(=O)(=O)N2CC[C@@H](F)C2)ccc(F)c1Oc1ccc2ncn(-c3cnc(N4CCC(CC5CCCN5c5ccc6c(c5)C(=O)N(C5CCC(=O)NC5=O)C6=O)CC4)nc3)c(=O)c2c1 (some centres unmarked) [Example 156] 35 to 70%

Provide only the value of recorded Dmax for N#Cc1c(NS(=O)(=O)N2CC[C@@H](F)C2)ccc(F)c1Oc1ccc2ncn(-c3ccc(N4CCC5(CC4)CN(CC4CCN(c6ccc7c(c6)CN([C@H]6CCC(=O)NC6=O)C7=O)CC4)C5)cc3)c(=O)c2c1 [Example 202] 35 to 70%

Recorded values, source patent US11957759B1.
